Values were extracted from patent US10526327B2.

Form: system (Jarid1B (Homo sapiens, UniProt Q9UGL1)), quantity (IC50), values below.

Some solved entries appear below for comparison.
CC(CO)COc1nc(O)c2ccncc2n1 (stereo not shown) :: 100 to 1000 nM
Oc1nc(Oc2cnn([C@H]3CCCN(Cc4ccccc4)C3)c2)nc2cnccc12 :: ≤ 100 nM
Oc1nc(Oc2ccc(F)c(F)c2)nc2cnccc12 :: ≤ 100 nM
CC(C)OCCOc1nc(O)c2ccncc2n1 :: 100 to 1000 nM
C[C@H](c1ccccc1F)n1cc(Oc2nc(O)c3ccncc3n2)cn1 :: ≤ 100 nM
COc1nc(O)c2ccnc(-c3cn(C)cn3)c2n1 :: ≤ 100 nM
CCCn1cc(Oc2nc(O)c3ccncc3n2)cn1 :: ≤ 100 nM
Oc1nc(OCC2CCC2)nc2cnccc12 :: 100 to 1000 nM

[ask] // lookup IC50 for `Cn1cnc(-c2nccc3c(O)nc(OCc4ccc(F)cc4)nc23)c1`
[reply] ≤ 100 nM

[ask] Okay, and `CCS(=O)(=O)N1CC[C@H](n2cc(Oc3nc(O)c4ccncc4n3)cn2)C1` ?
[reply] ≤ 100 nM
